Ref: patent EP4763837A1

experiment-notes: Solubility of photochromic compound in polymerizable compounds
Type: physicochemical
Set-up: key: 1: No haze is seen when checked under transmission of light, and the sample is completely dissolved.; 2: A very thin haze is seen to the extent that it can be seen under transmission of light.; 3: A thin haze that can be seen under transmission of light is seen.; 4: A haze can be seen even without transmission of light
setup-conditions: 35 µmol/g in radical polymerizable compound composition of Example 21, 65 to 70°C; head reads 60 min in Tables 8 to 14
Method: The photochromic compounds according to Examples and Comparative examples shown in Table 5 were evaluated for solubility in polymerizable compounds. […] Dissolution was checked every 15 minutes up to 1 hour later, the sample was visually checked by transmitting light through the sample, and a degree of dissolution was evaluated according to the following four evaluation criteria. […]
assay-endpoint: Dissolution for 1 hour
Give your answer as a number; write no unit.

# annotated cases, reported Dissolution for 1 hour shown
[[record]]
compound = "CCCCCCC1(C)c2cc(OC(F)(F)F)ccc2-c2c1c1c(c3cc(OC)ccc23)OC(c2ccc(OC)cc2)(c2ccc(OC)cc2)C=C1 (stereo not drawn)"
reading = 1

[[record]]
compound = "CCCCC1(CCC)c2ccccc2-c2c1c1c(c3cc(OC)c(N4CCOCC4)cc23)OC(c2ccc(OC)cc2)(c2ccc(OC)cc2)C=C1 (stereo not drawn)"
reading = 1


# input for lookup
Task item: Quick check: Dissolution for 1 hour of CCCC1(C)c2ccccc2-c2c1c1c(c3cc(OC)c(-c4c(OC)cc(OC)cc4OC)cc23)OC(c2ccc(OC)cc2)(c2ccc(N(c3ccccc3)c3ccccc3)cc2)C=C1 (stereo not drawn) ?
Reply: 1
